# ASSAY_INFO: endothelial E-selectin expression blockers – imaging, HUVEC, immunofluorescence, MLSMR starter and 10KST1 sets, primary screen (AID 487);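 also: 100% = median nuclei count of all wells on the same plate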
# MEASUREMENT_SETUP: HUVEC TNFalpha-induced E-selectin immunofluorescence imaging, at 2 µM; measured here: cell number, toxicity
MEASUREMENT_KIND: nuclei count

Which nuclei count value belongs to `CCc1nnc(NC(=O)CSc2nnc(CSc3nc(C)cc(C)n3)n2CC)s1` ?
129%

Repeat with `CCCCCn1c(CCNC(=O)CCC)nc2ccccc21`
104%

Repeat with `Cn1c2ccc(F)cc2c2ncn(CCN3CCOCC3)c(=O)c21`
109%

Repeat with `Cc1nc2cc(N3CCCCC3)c(NC(=O)c3cccnc3)cc2c(=O)n1Cc1ccccc1`
99.1%

Repeat with `C=CCSc1nc(N)c(C(=O)Nc2ccccc2C)cc1C(N)=O`
124%

Repeat with `COc1ccc(N(CC(=O)Nc2ccc3c(c2)OCO3)S(=O)(=O)c2c(C)nn(C)c2C)cc1`
105%

Repeat with `CS(=O)(=O)c1ccc2nc(NC(=O)c3cccs3)sc2c1`
104%

Repeat with `Cc1cc(NC(=O)CCC(=O)N(CC(=O)NC2CCCC2)Cc2ccc(F)cc2)no1`
122%

Repeat with CC1CN(Cc2nc3c(c(=O)[nH]c(=O)n3C)n2CC(N)=O)CC(C)O1 (configuration not stated)
111%

Repeat with `C=CCOC(=O)CCC(=O)Nc1cc(OC)nc(OC)n1`
116%

Repeat with Cc1nc2ccc(S(=O)(=O)NC(C(=O)N3CCCC3)C(C)C)cc2s1 (configuration not stated)
110%

Repeat with `CCCn1nc(NC(=O)c2cccs2)c2cc3cc(OC)ccc3nc21`
112%

Repeat with CCOC(=O)CC1=C(C(=O)OCC)C(c2ccc(C)o2)C(C#N)=C(N)O1 (configuration not stated)
94.7%

Repeat with `Cc1cc(C)cc(NC(=O)CCNS(=O)(=O)c2ccc3c(c2)oc(=O)n3C)c1`
100%

Repeat with `CN(Cc1cccs1)C(=O)CCc1ccc(S(=O)(=O)N2CCOCC2)cc1`
114%

Repeat with `Cn1c(=O)[nH]c(=O)c2[nH]c(NCCCN3CCOCC3)nc21`
112%

Repeat with `Nn1c(SCC(=O)Nc2ccc3c(c2)OCO3)nnc1C1CC1`
111%

Repeat with `CN1CCN(c2oc(COc3ccc(-c4ccccc4)cc3)nc2C#N)CC1`
111%

Repeat with CC(=O)c1ccc(OCC(O)CN2CC(C)OC(C)C2)cc1 (configuration not stated)
98.9%

Repeat with `COc1ccccc1OCC(=O)NCC1CCCCC1`
102%

Repeat with `Cc1cccc(NS(=O)(=O)c2cc(C(=O)OCC(=O)Nc3cc(C)on3)ccc2C)c1`
125%

Repeat with CC(CN1CCCCC1)OC(=O)c1ccc(Cl)cc1Cl (configuration not stated)
105%

Repeat with `CC(C)NC(=O)CSCc1ccccc1Cl`
110%

Repeat with `Cc1ccc(S(=O)(=O)N2CCC(C(=O)NCCN3CCCCCC3)CC2)cc1`
110%

Repeat with `Cc1cccn2c(=O)c3cc(C(=O)NC4CCCC4)c(=N)n(C4CCCC4)c3nc12`
126%

Repeat with `Cc1csc(NC(=O)CCCSc2nc3ccccc3s2)n1`
110%

Repeat with `CCOC(=O)c1ccc(NC(=O)COc2ccc(-n3cnnn3)cc2)cc1`
102%

Repeat with COc1ccc(NC(=O)CC2Sc3ncnn3C2=O)cc1 (configuration not stated)
126%

Repeat with `CCc1nnc(-n2nc(C)cc2-c2ccccc2)n1N`
109%

Repeat with `CCCCN(CC)CCNC(=O)c1cc2c(C)nc3ccccc3c2o1`
110%

Repeat with `COc1ccc(CCNC(=O)C2CCN(C(=O)N(C)C)CC2)cc1OC`
106%

Repeat with `COCCSc1nnc(NC(=O)Cc2ccccc2OC)s1`
103%
